Quick reference for pIC50 among some compounds
Target: UniProt:P13866
Sequence (P13866 whole entry, species assumed): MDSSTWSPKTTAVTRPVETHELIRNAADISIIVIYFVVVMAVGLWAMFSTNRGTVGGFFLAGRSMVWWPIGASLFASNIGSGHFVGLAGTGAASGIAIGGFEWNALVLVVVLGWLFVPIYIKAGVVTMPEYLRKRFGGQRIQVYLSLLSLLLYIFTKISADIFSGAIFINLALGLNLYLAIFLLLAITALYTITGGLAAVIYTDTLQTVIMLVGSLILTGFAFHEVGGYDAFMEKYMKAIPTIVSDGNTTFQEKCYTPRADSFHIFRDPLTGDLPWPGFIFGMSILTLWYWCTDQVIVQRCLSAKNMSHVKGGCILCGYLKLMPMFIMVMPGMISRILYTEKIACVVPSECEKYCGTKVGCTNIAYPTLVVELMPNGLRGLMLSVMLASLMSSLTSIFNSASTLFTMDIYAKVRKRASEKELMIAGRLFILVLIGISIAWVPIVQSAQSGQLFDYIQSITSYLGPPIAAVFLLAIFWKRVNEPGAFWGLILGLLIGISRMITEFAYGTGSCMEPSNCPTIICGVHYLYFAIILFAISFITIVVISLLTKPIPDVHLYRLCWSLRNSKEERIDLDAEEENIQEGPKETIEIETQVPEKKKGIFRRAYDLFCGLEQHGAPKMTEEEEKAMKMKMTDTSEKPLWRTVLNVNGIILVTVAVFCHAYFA
Experiment: [14C]-AMG absorption in stable SGLT1 expressing Flp-in CHO cells (SGLT-1 activity screening assay)
Conditions: 14C-AMG uptake, 37° C. 1 h, 1% DMSO
pIC50: −log10 of the molar value.
MEASURE_NAME: pIC50

COMPOUND	ASSAY_TARGET	MEASURE_NAME	MEASURED_VALUE
OC[C@H]1O[C@@H](c2ccc(Cl)c(Cc3ccc(OCC4Cc5ccc(F)cc5O4)cc3)c2)[C@H](O)[C@@H](O)[C@@H]1O (some centres unmarked) [Compound I-33]	UniProt:P13866	pIC50	6.22
Cc1ccc([C@@H]2O[C@H](CO)[C@@H](O)[C@H](O)[C@H]2O)cc1Cc1ccc(OCc2cc3ccccc3o2)cc1 [Compound I-3]	UniProt:P13866	pIC50	6.49
CC1(COc2ccc(Cc3cc([C@@H]4O[C@H](CO)[C@@H](O)[C@H](O)[C@H]4O)ccc3Cl)cc2)OCc2ccccc21 (single isomer, unassigned) [Compound I-115]	UniProt:P13866	pIC50	6.14
COc1ccc([C@@H]2O[C@H](CO)[C@@H](O)[C@H](O)[C@H]2O)cc1Cc1ccc(OCC2Cc3ccccc3O2)cc1 (some centres unmarked) [Compound I-29]	UniProt:P13866	pIC50	6.66
Cc1ccc([C@@H]2O[C@H](CO)[C@@H](O)[C@H](O)[C@H]2O)cc1Cc1ccc(OCC2(C)OCc3ccccc32)cc1 (single isomer, unassigned) [Compound I-114]	UniProt:P13866	pIC50	6.00
OC[C@H]1O[C@@H](c2ccc(Cl)c(Cc3ccc(OCc4cc5ccc(F)cc5o4)cc3)c2)[C@H](O)[C@@H](O)[C@@H]1O [Compound I-9]	UniProt:P13866	pIC50	6.82
CC1(COc2ccc(Cc3cc([C@@H]4O[C@H](CO)[C@@H](O)[C@H](O)[C@H]4O)ccc3Cl)cc2)Cc2ccccc2O1 (single isomer, unassigned) [Compound I-106]	UniProt:P13866	pIC50	6.15
OC[C@H]1O[C@@H](c2ccc(Cl)c(Cc3ccc(OCc4cc5cc(F)ccc5o4)cc3)c2)[C@H](O)[C@@H](O)[C@@H]1O [Compound I-8]	UniProt:P13866	pIC50	5.84
